Taken from ChEMBL document CHEMBL1961873.

molecular target: Protein kinase C gamma type (Homo sapiens); conditions: at 1 µM
# reported inhibition; entries follow
Give the quantity in %, number only.

[
  {
    "chem_smiles": "C[C@@H](Oc1cc(-n2cnc3ccc(OCC4CCN(C)CC4)cc32)sc1C(N)=O)c1ccccc1C(F)(F)F",
    "inhibition, %": 7.81
  },
  {
    "chem_smiles": "COc1cc(/C=N/Nc2ncnc3c2cnn3C(C)C)ccc1O",
    "inhibition, %": 5.96
  },
  {
    "chem_smiles": "COc1cc2ncnc(Nc3ccc4c(cnn4Cc4ccccc4)c3)c2cc1OC",
    "inhibition, %": 2.04
  },
  {
    "chem_smiles": "NC(=O)c1cccc(Nc2nccc(Nc3cccc(F)c3)n2)c1",
    "inhibition, %": 4.93
  },
  {
    "chem_smiles": "NS(=O)(=O)c1cccc(Nc2cc(-c3ccc(F)cc3)n[nH]2)c1",
    "inhibition, %": 2.43
  }
]

State the measured inhibition (Protein kinase C gamma type (Homo sapiens)) of NS(=O)(=O)c1cccc(-c2cc3ccncc3cc2OCc2ccccc2)c1
4.07

GET inhibition | system: Protein kinase C gamma type (Homo sapiens) | item: Cc1ccc(O)cc1Nc1ccnc2ccc(S(C)(=O)=O)cc12
4.87

Check Protein kinase C gamma type (Homo sapiens) data and give inhibition for c1ccc(Cc2nc3ccc(Nc4ncnc5ccccc45)cc3[nH]2)cc1 .
2.9

// output inhibition; input [O-][S+]1CCN(Cc2ccc(-c3ccc4ncnc(Nc5ccc(OCc6ccccc6)c(Cl)c5)c4c3)o2)CC1 ; system Protein kinase C gamma type (Homo sapiens)
3.28

Give the observed inhibition of Cc1ccc(NC(=O)CC2CC2)cc1-c1ccc(C(=O)NCC2CC2)cc1 for Protein kinase C gamma type (Homo sapiens).
6.55

Please look at COc1ccc2ncnc(Nc3ccc(OCc4ccccc4)cc3)c2c1 and tell me its recorded inhibition on Protein kinase C gamma type (Homo sapiens).
5.03

Name the value of inhibition reported for COc1cc2ncnc(Nc3ccc(C)c(O)c3)c2cc1OC when tested on Protein kinase C gamma type (Homo sapiens).
7.37

Provide Protein kinase C gamma type (Homo sapiens) inhibition reading for N#Cc1c(NC(=O)c2ccccc2F)sc2c1CCCC2 .
0.15

Provide inhibition, tested on Protein kinase C gamma type (Homo sapiens), for Nc1nccc(-c2c(-c3ccc(F)cc3)nn3cc(C(F)(F)F)ccc23)n1 .
-0.26

Answer briefly: inhibition recorded on Protein kinase C gamma type (Homo sapiens) for COc1cccc(-n2ncc3c(N/N=C/c4ccc(C)cc4)ncnc32)c1
-9.04

Recall the reported inhibition of CS(=O)(=O)CCNCc1nc(-c2ccc3ncnc(Nc4ccc(OCc5cccc(C(F)(F)F)c5)cc4)c3c2)cs1 when tested on Protein kinase C gamma type (Homo sapiens).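 Further: each value is an averaged percent inhibition of the enzyme.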
1.21

Give the observed inhibition of NS(=O)(=O)c1ccc(N/N=C2\C(=O)Nc3ccc(Cl)cc32)cc1 for Protein kinase C gamma type (Homo sapiens).
4.85

###

target: Serine/threonine-protein kinase pim-1 (Homo sapiens); details: at 1 µM;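 further: reported figures are mean percent inhibition of PIM1 kinase activity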
inhibition: recorded values
# unit: % | format: bare number

Examples with answers:
[
  {
    "chem_smiles": "CS(=O)(=O)Nc1cccc(-c2ccc3c(NC(=O)C4CC4)n[nH]c3c2)c1",
    "target_or_system": "Serine/threonine-protein kinase pim-1 (Homo sapiens)",
    "recorded_result": 0.43
  },
  {
    "chem_smiles": "NS(=O)(=O)c1ccc(N/N=C2\\C(=O)Nc3ccc(Cl)cc32)cc1",
    "target_or_system": "Serine/threonine-protein kinase pim-1 (Homo sapiens)",
    "recorded_result": 2.42
  },
  {
    "chem_smiles": "O=C(Nc1ccc(Oc2ccc3[nH]c(NC(=O)c4ccco4)nc3c2)cc1)Nc1cc(C(F)(F)F)ccc1F",
    "target_or_system": "Serine/threonine-protein kinase pim-1 (Homo sapiens)",
    "recorded_result": 1.19
  },
  {
    "chem_smiles": "COC(=O)Nc1nc2cc(Oc3ccc(NC(=O)Nc4cccc(Br)c4)cc3)ccc2[nH]1",
    "target_or_system": "Serine/threonine-protein kinase pim-1 (Homo sapiens)",
    "recorded_result": 0.21
  },
  {
    "chem_smiles": "Nc1nccc(-c2c(-c3ccc(F)cc3)ncn2CCCN2CCOCC2)n1",
    "target_or_system": "Serine/threonine-protein kinase pim-1 (Homo sapiens)",
    "recorded_result": 0.82
  },
  {
    "chem_smiles": "COc1cc2ncnc(Nc3ccc4c(cnn4Cc4ccccc4)c3)c2cc1OC",
    "target_or_system": "Serine/threonine-protein kinase pim-1 (Homo sapiens)",
    "recorded_result": 1.19
  },
  {
    "chem_smiles": "CN(C)C(=O)O[C@@H]1CN[C@@H](C#Cc2cc3ncnc(Nc4ccc(OCc5cccc(F)c5)c(Cl)c4)c3s2)C1",
    "target_or_system": "Serine/threonine-protein kinase pim-1 (Homo sapiens)",
    "recorded_result": 0.48
  },
  {
    "chem_smiles": "COc1cccc(-n2ncc3c(N/N=C/c4ccc(S(C)(=O)=O)cc4)ncnc32)c1",
    "target_or_system": "Serine/threonine-protein kinase pim-1 (Homo sapiens)",
    "recorded_result": 1.73
  }
]

Let us move to another entry and its inhibition.
Using Serine/threonine-protein kinase pim-1 (Homo sapiens) as the test system, report measured inhibition of COc1cccc(-n2nc(C)c3c(N/N=C(\C)c4ccncc4)ncnc32)c1 .
0.18
